Measured GI50 accompanies every entry in the list below.
tested on: UACC-62 melanoma; test: NCI tumour cell line growth inhibition, 48 h
measurement_type: GI50

COCC(=O)NC/C=C/c1ccc2ncnc(Nc3ccc(Oc4ccc(C)nc4)c(C)c3)c2c1 ... 10.6 µM
CN1CCN(Cc2ccc(NC(=O)c3cccc(C#Cc4c(N)ncc5ccc(F)cc45)c3)cc2C(F)(F)F)CC1 ... 0.698 µM
O=c1c(-c2nc3ccccc3[nH]2)cc2ccccc2n1Cc1cn(Cc2ccccc2Cl)nn1 ... 1.73 µM
COc1c(N2CCN(CN3C(=O)C(=O)c4ccccc43)C(C)C2)c(F)cc2c(=O)c(C(=O)O)cn(C3CC3)c12 (stereo unspecified) ... 47.5 µM
COc1cccc(NC(=O)c2ccc(NC3=C(Cl)C(=O)N(Cc4ccccc4)C3=O)cc2)c1 ... 15.4 µM
Cc1ccc(-n2c3c(c4c(CN)c(O)ccc42)CCc2ccccc2C3=O)cc1 ... 14 µM

---

tested on: HCC-2998 colon; test: NCI tumour cell line growth inhibition, 48 h
measurement_type: TGI

CCOC(=O)/C=C/c1c[nH]c(=O)[nH]c1=O ... > 75 µM
COc1cc(OC2OC(CO)C(O)C(O)C2O)c2c(c1)O[C@@H]1[C@H](O)Oc3cc(OC)c(OC)cc3[C@]1(O)C2=O (stereo partly drawn) ... > 25 µM
C=CCN(c1cc(OC)c2c(c1[N+](=O)[O-])C(C)(SC)C(=O)N2)S(C)(=O)=O (stereo not drawn) ... > 100 µM

---

test system: IGROV1 ovarian; test: NCI tumour cell line growth inhibition, 48 h
measurement_type: TGI

OCCCCCNc1ccnc2cc(Cl)ccc12 ... > 100 µM
CCCCCCC(=O)c1ccc2ccccc2c1O ... > 100 µM
C[C@H](C(O)CC(=O)C(C)(C)O)[C@H]1CC[C@@]2(C)[C@@H]3CC[C@H]4C(C)(C)[C@@H](OC5OC(COC6OC(CO)C(O)C(O)C6O)C(O)C(O)C5O)CC[C@]4(C)C3=CC[C@]12C (some centres undefined) ... > 100 µM
CC1=CC2=C(C#N)C(=O)OC2(C)C(c2ccccc2)C1 (centres undefined) ... > 100 µM
COc1cc(=O)oc(/C=C/C=C/C=C/C(C)=C\C2(C)OC(C)C(C)(O)C2O)c1C (centres undefined) ... > 100 µM
O=C(Nc1ccc(-n2ccc3c(NC(=O)c4ccccc4)nccc32)cc1)c1ccc(N2CCOCC2)c(C(F)(F)F)c1 ... > 42.6 µM
COc1cc(OC)cc(C(=O)Cc2c(C(=O)c3ccccc3)c3ccccc3n2C(=O)c2ccccc2)c1 ... > 100 µM
CCOC(=O)c1csc(-c2nc(CCNC(=O)c3ccccc3)sc2Cl)n1 ... > 100 µM
CC1(C)/C(=N\Nc2ccc([N+](=O)[O-])cc2[N+](=O)[O-])C2CCC1C2 (centres undefined) ... > 100 µM
CN(C)C1C(=O)C(C(N)=O)=C(O)C2(O)C(=O)C3=C(O)c4c(O)cccc4C(C)(O)C3CC12 (centres undefined) ... > 100 µM
Nc1ncnc2c1cnn2COCC(O)CO (centres undefined) ... > 100 µM
O=C(NNC(=O)c1c(Cl)c(Cl)c(Cl)c(Cl)c1-c1nc2ccccc2[nH]1)c1ccc(Cl)cc1 ... > 100 µM
Nc1nc(Cl)c(C=O)c(NCC2(CO)CCC2)n1 ... 25.9 µM
CC(C)(C)OC(=O)N1CCC(NC(=O)NC2CCN(C(=O)OC(C)(C)C)CC2)CC1 ... > 100 µM
COc1cc(C2SCC(=O)N2NC(=O)c2ccc(NC(C)=O)cc2OC)ccc1O (centres undefined) ... > 100 µM
OC1(C2(c3ccc(Cl)cc3)CCCC2)c2ccccc2C2=NCCN21 (centres undefined) ... 26.8 µM
Cc1c(C#N)c(N)n(C2OC(CO)C(O)C(O)C2O)c(=S)c1C#N (centres undefined) ... > 100 µM
COc1ccc(/C=C2\CCc3ccccc3C2=O)cc1OC ... > 100 µM
COc1ccc(NS(=O)(=O)c2ccc(N=C3C=C(Nc4ccc(S(=O)(=O)Nc5ccc(OC)nn5)cc4)C(=O)c4ccccc43)cc2)nn1 ... 45.7 µM
CC(=O)Oc1cc(Cl)c(OC(C)=O)c2c(OC(C)=O)c(C)c(O[Si](C)(C)C(C)(C)C)cc12 ... 12.5 µM
COc1ccc(Br)c(C=Nc2cccc3cc(OC)c(OC)cc23)c1 ... > 93.9 µM
CN1CCN(Cc2ccc(NC(=O)c3cccc(C#Cc4c(N)ncc5ccc(F)cc45)c3)cc2C(F)(F)F)CC1 ... 1.4 µM
C(/C=C/Nc1ccc(-c2ccccc2)cc1)=Nc1ccc(-c2ccccc2)cc1 ... > 100 µM
COc1ccc2c(c1)C(=O)[C@@](Nc1ccc(C=O)cc1)(OC)[C@@](OC)(c1ccc([N+](=O)[O-])cc1)O2 ... > 10 µM
S=C1SCN(C2CCCCCCCCCCC2)CN1C1CCCCCCCCCCC1 ... > 100 µM
COc1cc2c3cc1Oc1c(OC)c(OC)cc4c1C(Cc1ccc(O)c(c1)-c1cc(ccc1OC)CC3N(C)CC2)N(C)CC4 (centres undefined) ... 63.7 µM
CCN(CC)CCOc1ccc(Cc2ccccc2)cc1 ... 74.6 µM
CCN(CC)c1ccc(/C=N/NC(=O)c2ccccc2Nc2ccnc(C(F)(F)F)c2)c(O)c1 ... 71.4 µM
Brc1ccc(C2CC3(c4ccccc4)ON=C(c4ccccc4)N3c3ccccc3S2)cc1 (centres undefined) ... > 100 µM
